System: MDA-MB-468 breast
TEST: NCI-60 one-dose screen, 48 h (100 = growth as untreated, 0 = no growth, -100 = all killed)
RUN_CONDITIONS: 10 µM unless noted
Description: Growth inhibition of the MDA-MB-468 human Breast tumor cell line is measured as a screen for anti-cancer activity. Cells are grown in 96 well plates and exposed to the test compound for 48 hours. Compounds are tested at a single concentration, which is 10^-5 M for most compounds. The reported endpoint is percent growth (GI% or GIPRCNT), where numbers from 0 - 100% represent growth inhibition, and numbers from -100% - 0 represent cell death. […]
About 83,000 compounds went through this panel and 20% of them were active in at least one assay; those are over-represented in the sample as a whole. Active and inactive are the calls of the source. How the source made its calls: active means growth percent below 10; inactive means the rest.
Overview of recorded growth for various compounds

1) O=C(Nc1nc2ccc(F)cc2s1)c1cc(-c2ccc(F)cc2)n2nc(-c3ccccc3)cc2n1 : 92% (inactive)
2) O=C(Cn1cc(-c2ccccc2)nn1)Nc1nc(-c2ccc(Cl)cc2)cs1 : 92.6% (inactive)
3) COc1cc(/C=C2\CCCC3=C2N=C2SC=NN2C3c2cc(OC)c(OC)c(OC)c2)cc(OC)c1OC (stereo not drawn) : 18.1% (inactive)
4) CSc1nc2sc3cc(Cl)c(Cl)cc3n2c(=N)c1C#N : 72.6% (inactive)
5) CC[C@@H](C[C@H](CCO)c1ccccc1)c1cc2ccccc2o1 : 107% (inactive)

Item: COC(=O)c1c2c(c(C)[n+]([O-])c1C)C(=O)C(NCc1ccc(Cl)cc1)=CC2=O | growth: 39.8% (inactive)
